Cited source: the supplement of paper PMC3334620

TARGET_UNDER_TEST: Hap1 (UniProt P0CE41)
Sequence (P0CE41 whole entry): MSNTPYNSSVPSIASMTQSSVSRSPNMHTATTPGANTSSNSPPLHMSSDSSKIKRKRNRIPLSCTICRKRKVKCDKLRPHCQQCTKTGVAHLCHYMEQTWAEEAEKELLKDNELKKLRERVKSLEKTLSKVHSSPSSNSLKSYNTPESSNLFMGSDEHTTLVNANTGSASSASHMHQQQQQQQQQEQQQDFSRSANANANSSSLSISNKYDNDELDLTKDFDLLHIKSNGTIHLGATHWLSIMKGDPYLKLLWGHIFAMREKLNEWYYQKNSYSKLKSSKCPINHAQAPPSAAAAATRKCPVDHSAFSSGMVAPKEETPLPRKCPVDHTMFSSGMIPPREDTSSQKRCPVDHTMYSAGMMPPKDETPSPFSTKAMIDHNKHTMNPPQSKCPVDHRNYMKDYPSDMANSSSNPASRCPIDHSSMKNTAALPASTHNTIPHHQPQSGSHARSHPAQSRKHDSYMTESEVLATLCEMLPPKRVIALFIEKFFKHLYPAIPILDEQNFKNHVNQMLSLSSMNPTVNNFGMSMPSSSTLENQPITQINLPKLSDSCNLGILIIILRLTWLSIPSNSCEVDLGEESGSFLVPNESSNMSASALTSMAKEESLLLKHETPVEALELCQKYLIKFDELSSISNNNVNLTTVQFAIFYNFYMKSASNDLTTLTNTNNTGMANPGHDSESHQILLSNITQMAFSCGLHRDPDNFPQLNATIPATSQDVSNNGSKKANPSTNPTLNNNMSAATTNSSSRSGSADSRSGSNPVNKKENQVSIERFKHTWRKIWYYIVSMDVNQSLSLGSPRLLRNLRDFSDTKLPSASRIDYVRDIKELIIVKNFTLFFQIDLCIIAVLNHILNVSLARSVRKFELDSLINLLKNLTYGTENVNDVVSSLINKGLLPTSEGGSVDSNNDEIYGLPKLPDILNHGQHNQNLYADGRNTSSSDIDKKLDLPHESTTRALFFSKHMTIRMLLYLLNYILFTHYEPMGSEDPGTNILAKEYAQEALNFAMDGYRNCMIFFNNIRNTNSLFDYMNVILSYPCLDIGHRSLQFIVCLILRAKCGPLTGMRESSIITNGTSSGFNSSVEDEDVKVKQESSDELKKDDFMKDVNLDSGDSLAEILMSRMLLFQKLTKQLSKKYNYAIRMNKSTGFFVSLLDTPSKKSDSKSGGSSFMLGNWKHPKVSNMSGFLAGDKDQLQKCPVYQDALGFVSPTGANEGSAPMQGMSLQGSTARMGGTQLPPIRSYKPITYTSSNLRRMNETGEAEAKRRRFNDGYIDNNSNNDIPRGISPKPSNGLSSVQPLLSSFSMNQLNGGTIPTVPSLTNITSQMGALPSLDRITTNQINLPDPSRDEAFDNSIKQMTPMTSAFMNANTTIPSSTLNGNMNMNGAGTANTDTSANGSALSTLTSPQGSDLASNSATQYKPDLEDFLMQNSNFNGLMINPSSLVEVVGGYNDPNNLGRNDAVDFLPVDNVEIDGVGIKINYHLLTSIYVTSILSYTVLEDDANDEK
PROCEDURE_SUMMARY: PBM E-score (8-mer binding enrichment) (E-score (-0.5 to 0.5)); higher = stronger / more preferred TF binding
PARTICULARS: protein concentration: 200 nM; construct: GST-DNA-binding domain
Whole data set: some 33,000 sequences, median “E-score (-0.5 to 0.5)” near -0.053, cut for the highest 2% near 0.37. The sample holds the highest values, similar sequences and a random draw of the others, so the mix is not that of the screen.
PBM E-score below 0.07 gives NO; PBM E-score at or above it gives YES.

ENTRY_SEQUENCE: CAGGTATC
TARGET_UNDER_TEST: Hap1 (UniProt P0CE41)
GROUP_LABEL: NO
--
ENTRY_SEQUENCE: ACGGTATA
TARGET_UNDER_TEST: Hap1 (UniProt P0CE41)
GROUP_LABEL: YES
--
ENTRY_SEQUENCE: GAGTGTGA
TARGET_UNDER_TEST: Hap1 (UniProt P0CE41)
GROUP_LABEL: NO
--
ENTRY_SEQUENCE: ATGAAGAA
TARGET_UNDER_TEST: Hap1 (UniProt P0CE41)
GROUP_LABEL: NO
--
ENTRY_SEQUENCE: GCCCTGAA
TARGET_UNDER_TEST: Hap1 (UniProt P0CE41)
GROUP_LABEL: NO
--
ENTRY_SEQUENCE: CCGGTATA
TARGET_UNDER_TEST: Hap1 (UniProt P0CE41)
GROUP_LABEL: YES
--
ENTRY_SEQUENCE: CCCTCGTA
TARGET_UNDER_TEST: Hap1 (UniProt P0CE41)
GROUP_LABEL: NO
--
ENTRY_SEQUENCE: ACGGTATC
TARGET_UNDER_TEST: Hap1 (UniProt P0CE41)
GROUP_LABEL: YES
--
ENTRY_SEQUENCE: TACTCGGA
TARGET_UNDER_TEST: Hap1 (UniProt P0CE41)
GROUP_LABEL: YES
--
ENTRY_SEQUENCE: AGGGTATA
TARGET_UNDER_TEST: Hap1 (UniProt P0CE41)
GROUP_LABEL: YES
--
ENTRY_SEQUENCE: GACTCGGA
TARGET_UNDER_TEST: Hap1 (UniProt P0CE41)
GROUP_LABEL: YES
--
ENTRY_SEQUENCE: GCTCGAGC
TARGET_UNDER_TEST: Hap1 (UniProt P0CE41)
GROUP_LABEL: NO
--
ENTRY_SEQUENCE: AGGAAAGA
TARGET_UNDER_TEST: Hap1 (UniProt P0CE41)
GROUP_LABEL: NO
--
ENTRY_SEQUENCE: CCCTCGGC
TARGET_UNDER_TEST: Hap1 (UniProt P0CE41)
GROUP_LABEL: YES
--
ENTRY_SEQUENCE: GGGGTATA
TARGET_UNDER_TEST: Hap1 (UniProt P0CE41)
GROUP_LABEL: YES
